pIC50: −log10 of the molar value.
Consider the following pIC50 values measured on KIF18A (Homo sapiens, UniProt Q8NI77).
Sequence (Q8NI77 1-367): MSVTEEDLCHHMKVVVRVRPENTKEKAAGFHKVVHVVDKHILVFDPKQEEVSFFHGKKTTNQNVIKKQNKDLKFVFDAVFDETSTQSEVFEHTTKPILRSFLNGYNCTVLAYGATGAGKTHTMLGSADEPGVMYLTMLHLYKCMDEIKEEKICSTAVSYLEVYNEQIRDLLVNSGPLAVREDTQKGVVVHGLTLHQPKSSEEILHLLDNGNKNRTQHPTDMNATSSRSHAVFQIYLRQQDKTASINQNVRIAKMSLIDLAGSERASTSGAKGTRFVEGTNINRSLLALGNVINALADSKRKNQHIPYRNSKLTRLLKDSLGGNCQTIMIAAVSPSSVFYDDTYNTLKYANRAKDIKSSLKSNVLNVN

Cc1cc(NC(=O)c2ccc(NS(=O)(=O)N(C)CCO)cc2N2CC[Si](C)(C)CC2)nc(C2CCC(F)(F)CC2)n1 [Example 134]; > 7.00
Cc1cc(NC(=O)c2ccc(NS(=O)(=O)CCO)cc2N2CC[C@@]3(C(F)(F)F)C[C@H]3C2)nc(N2CCC(F)(F)CC2)n1 [Example 85]; > 7.00
Cc1cc(NC(=O)c2ccc(NS(=O)(=O)CCO)cc2N2CC[C@]3(C(F)(F)F)C[C@@H]3C2)nc(N2CCC(F)(F)CC2)n1 [Example 86]; > 7.00

Moving on to another molecule below.
Qu. Could you tell me which pIC50 is on file for Cc1cc(NC(=O)c2c(F)cc(NS(=O)(=O)CCO)cc2N2CC[C@@]3(C)C[C@H]3C2)nc(N2CCC(F)(F)CC2)n1 (single isomer, unassigned) [Example 31b] ?
Ans. > 7.00
